- METHOD_DESCRIPTION: Photophysical studies (absorption and emission in DMSO)
- Type: physicochemical
- ASSAY_SETUP: molar absorption coefficient
MEASURE_NAME: log ε
Give bare numbers.

Consider the following items and state reported log ε for each.
1. CCCOc1ccc2ncnc3c2c1Sc1ccccc1-3 [Compound 12]
2. CCCOc1ccc2c3c(n/c(=N/c4ccccc4C)n2-c2ccccc2C)-c2ccccc2Sc13 [Compound 14]

[reply]
1: 3.72; 2: 4.00

Respectfully, I request log ε for each entry included below.
1. CCCOc1ccc2nc(NCc3ccccc3Cl)nc3c2c1Sc1ccccc1-3 [Compound 13]
2. CCCOc1ccc2nc(N)nc3c2c1Sc1ccccc1-3 [Compound 11]

[reply]
[3.72, 3.67]

* * *

- Tested on: A375-C5 (melanoma)
- METHOD_DESCRIPTION: SRB cell growth inhibition assay, A375-C5
- Assay type: cell-based, human
- ASSAY_SETUP: ratio of GI50 in non-tumor HPAEpiC cells over GI50 in A375-C5
MEASURE_NAME: Selectivity Index A375-C5
One number for each entry.

Answered cases to consult:
1. CCCOc1ccc2nc(NCc3ccccc3Cl)nc3c2c1Sc1ccccc1-3 [Compound 13] ... 5.59
2. CCCOc1ccc2nc(N)nc3c2c1Sc1ccccc1-3 [Compound 11] ... 4.13
3. COc1cccc2c1C(=O)c1c(O)c3c(c(O)c1C2=O)C[C@@](O)(C(=O)CO)C[C@@H]3O[C@H]1C[C@H](N)[C@H](O)[C@H](C)O1 [Doxorubicin, reference compound] ... 3.38

Next, consider the following molecule.
[ask] Param request: Selectivity Index A375-C5 | system A375-C5 (melanoma) | item CCCOc1ccc2ncnc3c2c1Sc1ccccc1-3 [Compound 12]
[reply] 1.01

* * *

- Tested on: Human Pulmonary Alveolar Epithelial Cells (HPAEpiC)
- METHOD_DESCRIPTION: Cell toxicity in non-tumor cells (GI50)
- Format: cell-based
- ASSAY_SETUP: mean ± SD of three independent experiments
MEASURE_NAME: GI50 (µM)
Numbers only, in µM.

1. COc1cccc2c1C(=O)c1c(O)c3c(c(O)c1C2=O)C[C@@](O)(C(=O)CO)C[C@@H]3O[C@H]1C[C@H](N)[C@H](O)[C@H](C)O1 [Doxorubicin, reference compound] ... 0.054
2. CCCOc1ccc2nc(NCc3ccccc3Cl)nc3c2c1Sc1ccccc1-3 ... 128
3. CCCOc1ccc2nc(N)nc3c2c1Sc1ccccc1-3 ... 26.8

Query compound follows.
[ask] Specify reported GI50 for the compound shown: "CCCOc1ccc2ncnc3c2c1Sc1ccccc1-3"
[reply] 39.3

* * *

- METHOD_DESCRIPTION: Photophysical studies (absorption and emission in DMSO)
- Assay type: physicochemical
- ASSAY_SETUP: fluorescence quantum yield, by comparison with fluorescein (φf = 90%)
Give ΦF for every item shown.

Below are worked cases with known answers.
1. CCCOc1ccc2c3c(n/c(=N/c4ccccc4C)n2-c2ccccc2C)-c2ccccc2Sc13 ... <0.1%
2. CCCOc1ccc2nc(N)nc3c2c1Sc1ccccc1-3 ... 29.0%
3. CCCOc1ccc2ncnc3c2c1Sc1ccccc1-3 ... 50.7%

Next item in the queue.
[ask] Look up and state reported ΦF for "CCCOc1ccc2nc(NCc3ccccc3Cl)nc3c2c1Sc1ccccc1-3"
[reply] 31.3%

* * *

- METHOD_DESCRIPTION: Photophysical studies (absorption and emission in DMSO)
- Assay type: physicochemical
- ASSAY_SETUP: absorption
Provide the recorded λmax for the entries that follow.
One number for each entry, in nm.

// known answers, use as guide
1) CCCOc1ccc2nc(NCc3ccccc3Cl)nc3c2c1Sc1ccccc1-3 ... 457
2) CCCOc1ccc2ncnc3c2c1Sc1ccccc1-3 ... 394
3) CCCOc1ccc2nc(N)nc3c2c1Sc1ccccc1-3 ... 456

[ask] Identify measured λmax associated with "CCCOc1ccc2c3c(n/c(=N/c4ccccc4C)n2-c2ccccc2C)-c2ccccc2Sc13"
[reply] 480

Origin of values: paper PMC8198043
